- procedureDetails: PSAC antagonists in infected red cells, primary screen, cell-based, P. falciparum Indochina, OD700, 2 h (AID 1155);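 note: lysis reports solute entry through the parasite surface anion channel PSAC; channel blockers reduce lysis of infected cells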
- testContext: P. falciparum Indochina infected erythrocytes, osmotic lysis OD700, called active from +8 up or from −8 down
Activity calls are given as the source filed them.
Labels: TRUE = active, FALSE = inactive

molecule: COC(=O)Cn1c(C(=O)N(C)C)cc2c1C[C@H]1CN(C(=O)c3ccccc3)[C@@](Cc3ccc(OC)cc3)(C(=O)OC)[C@@H]21
qualitativeLabel: FALSE
--
molecule: Cc1ccc(S[C@]2(C(=O)NCCCN(C)C)CC(=O)N(Cc3ccccc3Cl)[C@@H]2c2ccc(CO)cc2I)cc1
qualitativeLabel: FALSE
--
molecule: CN1C(=O)[C@]2(CCC(=O)OC(C)(C)C)N=C(c3ccc(OCCCO)cc3)O[C@@H]2c2ccccc21
qualitativeLabel: TRUE
--
molecule: O=C1OCCC=C[C@H]2OC34C=CCN(CCN5CCOCC5)C(=O)[C@H]3N(CCCO)C(=O)[C@@H]4C12 (some centres not stated)
qualitativeLabel: FALSE
--
molecule: COc1ccccc1CN1C(=O)c2ccccc2[C@](Cc2ccccc2I)(C(=O)NCCCN(C)C)[C@@H]1c1ccc(CO)cc1
qualitativeLabel: FALSE
--
molecule: CCCCN1CC=CC23O[C@@H]4/C=C\CCC(C)OC(=O)C4[C@H]2C(=O)N(C(C)CO)[C@@H]3C1=O (some centres not stated)
qualitativeLabel: FALSE
--
molecule: COCCOC(=O)N1C(=O)[C@@]2(c3cc(C#CCC(C(=O)OC)C(=O)OC)ccc31)[C@H](c1ccc(OCCO)cc1)N1[C@H](c3ccccc3)[C@H](c3ccccc3)OC(=O)[C@H]1[C@@H]2C(=O)N1CCCCCCC1
qualitativeLabel: FALSE
--
molecule: COCCOC(=O)N1C(=O)[C@@]2(c3cc(C#CC4(O)CCCCCC4)ccc31)[C@H](c1ccc(OCCO)cc1)N1[C@H](c3ccccc3)[C@H](c3ccccc3)OC(=O)[C@H]1[C@@H]2C(=O)N1CCCCCCC1
qualitativeLabel: FALSE
--
molecule: NCCCC[C@@H]1NC(=O)[C@H]2C[C@@H](C(=O)O)[C@@H](c3cccc(OCCO)c3)N2C1=O
qualitativeLabel: FALSE
--
molecule: [N-]=[N+]=NCc1ccccc1[C@H]1OC(c2ccc(OCCCO)cc2)=N[C@@]1(Cc1ccccc1)C(=O)N1CCOCC1
qualitativeLabel: TRUE
--
molecule: CCCC[C@@H]1C[C@H]1[C@@H](NC(=O)Cc1ccccc1)c1ccc(Cl)cc1
qualitativeLabel: FALSE
--
molecule: CC1(C)OC[C@@]23C=C(Br)[C@@H](C[C@H]12)[C@@]1(CO1)C3=O
qualitativeLabel: FALSE

###

- procedureDetails: binders of probe aFGF2 on microarray, primary screen, stem cell growth factor project, biochemical, small-molecule microarray, fluorescence 635/667 (AID 1067);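 note: measures binding of biotinylated aFGF2 protein to printed compounds on slides; z-score merges feature fluorescence and signal-to-noise across triplicate slides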
- testContext: higher = more signal
parameter: composite z-score

compound: CC1CC/C=C\[C@H]2OC34C=CCN(c5ccc(Cl)cc5)C(=O)[C@H]3N(CCCO)C(=O)[C@]4(C)C2C(=O)O1 (stereo not given in full)
numericValue: -0.162
//
compound: CC(C)CNC(=O)[C@@H]1c2ccccc2C(=O)N(C2Cc3ccccc3C2)[C@H]1c1ccc(CO)cc1
numericValue: -0.0737
//
compound: COc1ccc(CCNC(=O)[C@@]2(C)c3ccccc3C(=O)N(Cc3cc(C(F)(F)F)cc(C(F)(F)F)c3)[C@H]2c2ccc(CO)cc2)cc1
numericValue: 0.383
//
compound: COc1ccc(NC(=O)O[C@H]2[C@H](OC(=O)Nc3ccc4c(c3)OCO4)[C@H](OC(=O)Nc3ccc4c(c3)OCO4)[C@@H](OC)O[C@@H]2CO)cc1
numericValue: 0.0519
//
compound: C#CCN(C/C=C/c1ccccc1)[C@H](CO[Si](C)(C)C(C)(C)C)c1ccccc1
numericValue: -0.0815
//
compound: CC(C)C[C@@H]1NC(=O)C([C@@H](C)OCc2ccccc2)NC(=O)[C@@]23C(=O)N[C@@H](Cc4ccccc4)C2[C@H](C)[C@@]2(C)O[C@H]2C3/C=C/CC/C=C/CNC1=O (stereo not given in full)
numericValue: -0.0841
//
compound: COCCCN1C(=O)[C@@]2(Cc3ccccc31)c1ccccc1C(=O)N(Cc1ccccc1OC)[C@H]2c1ccc(CO)cc1
numericValue: -0.122
//
compound: COC(=O)[C@@]1(Cc2ccc(OC)cc2)[C@H]2c3cc(C(=O)N(C)C)n(Cc4ccsc4Br)c3C[C@H]2CN1C(=O)c1ccccc1
numericValue: 0.336
//
compound: C=CCC(OC(C)=O)[C@@H]1[C@@H](N(Cc2cc3ccccc3o2)C(=O)Cc2ccc(OC)cc2)c2cc(OCCCO)ccc2N1C(=O)Cc1ccc2ccccc2c1 (stereo not given in full)
numericValue: -0.0348
//
compound: O=C1C2C=CC(C(O)C(c3ccccc3)c3ccccc3)N(Nc3ccccc3)C2C(=O)N1c1ccccc1 (stereo not given)
numericValue: 0.128
